- measurementNotes: Probe fluorescence ratio response to linolenic acid relative to ADIFAB2
- Format: binding
- measurementSetup: response relative to ADIFAB2
measureName: DR/DR LNA
Please give the numeric answer without any surrounding text.

molecule | measureName | testValue
31E, 72A (protein, listed as Rattus norvegicus, PEPTIDE (1)...(131) wild-type rat intestinal fatty acid binding protein) AFDGTWKVDRNENYEKFMEKMGINVVKRKLEAHDNLKLTITQEGNKFTVKESSNFRNIDVVFELGVDFAYSAADGTELTGTWTMEGNKLVGKFKRVDNGKELIAVREISGNELIQTYTYEGVEAKRIFKKE | DR/DR LNA | 0.522

Shift focus to the following entry.
Prompt: DR/DR LNA for 72A 73P 74E (protein, listed as Rattus norvegicus, PEPTIDE (1)...(131) wild-type rat intestinal fatty acid binding protein) AFDGTWKVDRNENYEKFMEKMGINVVKRKLGAHDNLKLTITQEGNKFTVKESSNFRNIDVVFELGVDFAYSAPEGTELTGTWTMEGNKLVGKFKRVDNGKELIAVREISGNELIQTYTYEGVEAKRIFKKE ?
Response: 1.863
